system: HOP-62 NSCLC; experiment: NCI tumour cell line growth inhibition, 48 h
endpoint: TGI

Check out these entries, answers already filled in.
1) NC1CCN(c2nc(Nc3cccc(C(F)(F)F)c3)c3c(=O)[nH]ccc3n2)CC1	3.54 µM
2) COC(=O)C1=C(C)NC2(O)C=CC(=O)C3C(=O)N(c4ccccc4)C(=O)C132 (stereo unspecified)	> 100 µM
3) C1CCN(c2nsc(N3CCCCC3)n2)CC1	> 100 µM
4) CN(C)N1C(=O)c2ccccc2NC1c1ccccc1 (stereo unspecified)	> 100 µM
5) O=C(Nc1ccc(Cl)cc1)c1ccc(NC2=C(Cl)C(=O)N(Cc3ccccc3)C2=O)cc1	27.7 µM
6) CC12CCC(C(=O)O1)C(C)(C)O2 (stereo unspecified)	> 100 µM
7) O=C(/C=C/c1cccc(Br)c1)c1cccs1	73.8 µM
8) COc1ccc(N2C(=Nc3ccccc3)SC(=N/S(=O)(=O)c3ccccc3)/C2=N\S(=O)(=O)c2ccccc2)cc1	98.5 µM
9) C=C1C(=O)OC2CC1C(O)C/C(C)=C/CC/C(C)=C/C(O)CC2C (stereo unspecified)	25.2 µM
10) Nc1nc2c(c(=O)[nH]1)N(C=O)C(CNc1ccc(C(=O)N[C@@H](CCC(=O)O)C(=O)O)cc1)CN2 (stereo partly specified)	> 125 µM

# ---- query compound ----
Noted TGI for COC(=O)C(C)(N=Cc1ccccc1)c1ccccc1 (stereo unspecified) , tested on HOP-62 NSCLC: > 100 µM

====

tested on: SF-539 CNS; experiment: NCI tumour cell line growth inhibition, 48 h
endpoint: TGI

1) O=C1C[C@@H]2C(COC(=O)c3ccccc3)N(OCc3ccccc3)C[C@@H]2O1 (stereo not given in full)	> 100 µM
2) C#CC1(O)C(COP(=O)(O)OC2CC(n3cc(F)c(=O)[nH]c3=O)OC2CO)OC(n2ccc(N)nc2=O)C1O (stereo not given)	0.22 µM
3) COc1ccc(S(=O)(=O)O)cc1-n1nc(C(=O)Nc2ccccc2)n[n+]1-c1cc(S(=O)(=O)[O-])ccc1OC	> 100 µM
4) CN(C)N1C(=O)c2ccccc2NC1c1ccccc1 (stereo not given)	> 100 µM

Next up:
Value of measured TGI for the entry NC(=Nc1ccc(O)cc1)S(=O)(=O)O : > 100 µM

====

CAKI-1 renal: reported GI50 for various molecules.

1) CO/C1=C\C(C)=C\C(C)C(O)C(C)C/C(C)=C/C=C/C(OC)C(C(C)C(O)C(C)C2(O)CC(O)C(C)C(C(C)C)O2)OC1=O (stereo unspecified)	0.021 µM

Noted GI50 for CC1(C)OC(=O)C=C([O-])O1.CC1(C)OC(=O)C=C([O-])O1.O=S(=O)([O-])c1ccc([O-])c2ncccc12.O=S(=O)([O-])c1ccc([O-])c2ncccc12.[Ti+4] , tested on CAKI-1 renal: > 100 µM

GI50 for CAKI-1 renal with input CC1=C[C@H]2c3c(c(O)c(O)c4oc5ccccc5c(=O)c34)[C@H](c3cc(O)c(O)c4oc5ccccc5c(=O)c34)[C@H]2C(C)(C)C1 equals 0.675 µM

Form field GI50 for item O=c1nc(Nc2cccc(Cl)c2)oc2cc(Cl)oc(=O)c12 on CAKI-1 renal: 5.93 µM

Case O=C(Nc1ccc(F)cc1)c1c(NC(=O)C(F)(F)F)sc2c1CCCCC2 , CAKI-1 renal, GI50 recorded as 1.35 µM

Test item Clc1ccc2[nH]cc(-c3nc(-c4c[nH]c5ncccc45)cs3)c2c1 ; CAKI-1 renal; reported GI50 was 1.73 µM

====

A collection of molecules and their measured TGI
system: U251 CNS; experiment: NCI tumour cell line growth inhibition, 48 h

Worked cases, TGI given:
1) Clc1ccc2sc(-n3ccc4ccccc43)nc2c1	> 100 µM
2) COc1cc2c(c(OC)c1OC)-c1ccc(SC)c(=O)cc1[C@@H](OC(C)=O)CC2	> 100 µM
3) COC(=O)c1sc(C(=O)OC)c2c1CSC2	> 81 µM

Please fill in: TGI reported for CC1(C)[C@@H](Cn2cnc3c(N)ncnc32)CC[C@@]1(C)CO = > 100 µM

Consider OCCSCc1ccccc1 . Its measured TGI is > 100 µM

# molecule CCOC(=O)Oc1cc2c(c(OC)c1OC)-c1ccc(SC)c(=O)cc1C(NC(=O)C(F)(F)F)CC2 (configuration not stated) ; its TGI = 0.0148 µM

Record O=C(Nc1cccc(C(F)(F)F)c1)O/N=C(/Cl)CCl . Reported TGI: > 100 µM

====

tested on: NCI-H226 lung; test: NCI tumour cell line growth inhibition, 48 h
endpoint: TGI

Solved entries (count: 10):
1) Cn1c(=O)c2c(nc3n(Cc4ccccc4)c(=O)c(NCCBr)cn23)n(C)c1=O	63.1 µM
2) COC(=O)c1ccccc1C#CC#Cc1ccccc1C(=O)OC	> 10 µM
3) CN1NC2(CCCCC2)ON=C1c1ccccc1	> 100 µM
4) Cc1c2c(cc3c1[nH]c1ccccc13)C=NCC2	50.2 µM
5) COC(=O)C1=C(C)NC2(O)C=CC(=O)C3C(=O)N(c4ccccc4)C(=O)C132 (configuration not stated)	> 100 µM
6) COc1ccc(S(=O)(=O)O)cc1-n1nc(C(=O)Nc2ccccc2)n[n+]1-c1cc(S(=O)(=O)[O-])ccc1OC	> 100 µM
7) CCOC(=O)/C(=C\c1ccc(N(C)C)cc1)S(=O)(=O)C(F)(F)C(F)(F)C(F)(F)C(F)(F)F	> 100 µM
8) C=C1C(=O)O[C@H]2[C@H]1CC/C(COC(=O)NCc1ccc(Cn3c(=O)sn(CCCCl)c3=O)cc1)=C\CC[C@@]1(C)O[C@@H]21	42.6 µM
9) CC/C=C\C[C@H](O)C/C=C1/C(=O)C=C[C@@H]1C/C=C\CCCC(=O)N(C)C	7.84 µM
10) CC(=O)N1CCc2c([nH]c3ccc(Br)cc23)C1c1ccccc1 (configuration not stated)	> 10 µM

Noted for COc1ccc(/C=C/c2nc(NCCCN(C)C)c3ccccc3n2)cc1 : its TGI reads 30.7 µM

Lab book: TGI of CC(=O)O[C@H]1CC[C@@]2(C)C(=CC[C@H]3[C@@H]4C/C(=C\c5cccc(OCCN6CCOCC6)c5)[C@H](OC(C)=O)[C@@]4(C)CC[C@@H]32)C1 noted as 85.9 µM

The reported value for COC(=O)c1c2c(c(C)[n+]([O-])c1C)C(=O)C=C(NCc1ccc(F)c(F)c1)C2=O in terms of TGI is 3.27 µM

The reported value for NNc1cccc(/C=C/c2ccccc2)cc1=O in terms of TGI is > 100 µM

Lab note: Cc1ccnc2[nH]c(-c3cccc(Cl)c3)cc(=O)c12 gave TGI of > 100 µM

====

system: TK-10 renal; experiment: NCI tumour cell line growth inhibition, 48 h
endpoint: log10(TGI) (log10 of the value in µM)
Form field - Quantity: TGI; Unit: µM; Scale: log10

The compound identified as CC(=O)O[C@H]1CC[C@@]2(C)C(=CC[C@H]3[C@@H]4C/C(=C\c5cccc(OCCN6CCOCC6)c5)[C@H](OC(C)=O)[C@@]4(C)CC[C@@H]32)C1 registered its log10(TGI) at 1.69

Value of measured log10(TGI) for the entry CC1=C[C@H]2c3c(c(O)c(O)c4oc5ccccc5c(=O)c34)[C@H](c3cc(O)c(O)c4oc5ccccc5c(=O)c34)[C@H]2C(C)(C)C1 : 1.18

Summary for this compound, O=c1c(SSc2coc3cc(F)ccc3c2=O)coc2cc(F)ccc12 : log10(TGI) is 1.82

Measured log10(TGI) of N#Cc1c(-c2ccccc2)cc(-c2ccc(Nc3nc(Nc4ccc(Cl)cc4)nc(Nc4ccc(Cl)cc4)n3)cc2)nc1N : 0.64

// log10(TGI) value for O=C(/C=C/c1cccc(Br)c1)c1cccs1 : 1.50

The reported value for NC1CCN(c2nc(Nc3cccc(C(F)(F)F)c3)c3c(=O)[nH]ccc3n2)CC1 in terms of log10(TGI) is 0.43

====

tested on: UACC-257 melanoma
Below, each of the compounds is paired with its reported GI50 value.

1) Cn1c(=O)c(Oc2ccccc2F)cc2cnc(NC3CCOCC3)nc21	> 25 µM

Value of measured GI50 for the entry Nc1nnc2cc(Cl)ccc2n1 : > 100 µM

Entry Cn1ncc2c(N)nc(N3CCCCC3)nc21 , GI50 reported as 54.4 µM

====

Below: a set of entries, each annotated with reported TGI.
tested on: DMS 273 small cell lung; test: NCI tumour cell line growth inhibition, 48 h

Worked examples, 5 compounds total:
1. COc1ccc(C(N)=O)cc1N=NN(C)C	> 100 µM
2. CCOc1ccc(/C=C(\Cl)c2ccc(OC)c(OC)c2)cc1	> 100 µM
3. COc1cc2noc(-c3ccccc3)c2cc1OC	> 100 µM
4. C=C1C(=O)OC2(C)C3CCC(C3)C12 (stereo unspecified)	> 100 µM
5. O=C1CSC(/C(=C\c2ccc(Cl)cc2)c2nc3ccccc3[nH]2)=N1	37.6 µM

Could you now consider this next compound?
Kindly note the recorded TGI for CC(=O)OCC1OC(n2cc(F)c(=O)[nH]c2=O)C(N)C(OC(C)=O)C1OC(C)=O (stereo unspecified) , which is > 100 µM
